Where do these numbers come from? They come from ChEMBL document CHEMBL1148972.

Tested on: HeLa
Assay: Cytotoxicity against human HeLa cells after 48 hrs by MTT assay
Format: functional, cell-based
observation_type: IC50

What the record says about CC(/C=C/C=C(\C)C(=O)O)=C\C=C\C(C)=C1\C(=O)C[C@H]2[C@@]3(C)CCC(=O)C(C)(C)[C@@H]3CC[C@]12C [RHABDASTRELLIC ACID A] : IC50 is > 5 µg/mL

What the record says about COC(=O)/C(C)=C/C=C/C(C)=C/C=C/C(C)=C1/C(=O)C[C@H]2[C@@]3(C)CCC(=O)C(C)(C)[C@@H]3CC[C@]12C [RHABDASTRELLIC ACID A METHYL ESTER] : IC50 is > 5 µg/mL

What the record says about CC(/C=C/C=C(C)/C=C/C=C(\C)C(=O)O)=C1/C(=O)C[C@H]2[C@@]3(C)CCC(=O)C(C)(C)[C@@H]3CC[C@]12C [STELLETIN E] : IC50 is > 5 µg/mL

What the record says about CC1=CC[C@@H](/C(C)=C/C=C/C(C)=C2\C(=O)C[C@H]3[C@@]4(C)CCC(=O)C(C)(C)[C@@H]4CC[C@]23C)OC1=O [22,23-DIHYDROSTELLETTIN B] : IC50 is > 5 µg/mL

What the record says about CC(=O)/C=C\C(=O)/C(C)=C/C=C/C(C)=C1/C(=O)C[C@H]2[C@@]3(C)CCC(=O)C(C)(C)[C@@H]3CC[C@]12C : IC50 is > 5 µg/mL

What the record says about CC(=O)/C=C/C(=O)/C(C)=C/C=C/C(C)=C1\C(=O)C[C@H]2[C@@]3(C)CCC(=O)C(C)(C)[C@@H]3CC[C@]12C [GEODITIN A] : IC50 is > 5 µg/mL

What the record says about CC(=O)/C=C\C(=O)/C(C)=C/C=C/C(C)=C1\C(=O)C[C@H]2[C@@]3(C)CCC(=O)C(C)(C)[C@@H]3CC[C@]12C [ISOGEODITIN A] : IC50 is 0.35 µg/mL

What the record says about CC(=O)/C=C/C(=O)/C(C)=C/C=C/C(C)=C1\C(=O)C[C@H]2[C@@]3(C)CC[C@H](OC(C)=O)C(C)(C)[C@@H]3CC[C@]12C [GEODITIN B] : IC50 is > 5 µg/mL

What the record says about CC(=O)/C=C\C(=O)/C(C)=C/C=C/C(C)=C1\C(=O)C[C@H]2[C@@]3(C)CC[C@H](OC(C)=O)C(C)(C)[C@@H]3CC[C@]12C [ISOGEODITIN B] : IC50 is 3 µg/mL

What the record says about C\C(=C/C=C/C(C)=C1/C(=O)C[C@H]2[C@@]3(C)CCC(=O)C(C)(C)[C@@H]3CC[C@]12C)c1ccc(C)c(=O)o1 [STELLETIN A] : IC50 is > 5 µg/mL

What the record says about CC(/C=C/C=C(\C)c1ccc(C)c(=O)o1)=C1/C(=O)C[C@H]2[C@@]3(C)CCC(=O)C(C)(C)[C@@H]3CC[C@]12C [STELLETTIN B] : IC50 is > 5 µg/mL

What the record says about CC(=O)O[C@H]1CC[C@@]2(C)[C@@H](CC[C@]3(C)\C(=C(C)/C=C/C=C(\C)c4ccc(C)c(=O)o4)C(=O)C[C@@H]23)C1(C)C [STELLETTIN C] : IC50 is > 5 µg/mL

What the record says about COC(=O)/C(C)=C/C=C/C(C)=C/C=C/C(C)=C1\C(=O)C[C@H]2[C@@]3(C)CCC(=O)C(C)(C)[C@@H]3CC[C@]12C [STELLETTIN E METHYL ESTER] : IC50 is > 5 µg/mL

What the record says about COc1cc2c(c(OC)c1OC)-c1ccc(OC)c(=O)cc1[C@@H](NC(C)=O)CC2 [COLCHICINE] : IC50 is 0.1 µg/mL
